Measured CC50 of individual entries
- System: Primary Human Dermal Fibroblasts
- protocol.notes: in vitro
- recorded.conditions: read-out: D. Fibroblast LC50; 6 days, Alamar blue
quantity.name: CC50

>>> print(df.to_string())
                                    compound  reported
 0  CCN(CCN(C)C)c1ccnc(C(=O)Nc2cccc3cccnc23)c1 [Compound 40]    7.6 µM
 1  O=C(Nc1cc(Cl)c(Cl)c2cccnc12)c1ccccn1 [Compound 15]   > 10 µM
 2  O=C(Nc1cccc2cccnc12)c1cc(-c2ccccc2)ccn1 [Compound 27]   > 10 µM
 3  O=C(Nc1cccc2cccnc12)c1cc2ccccc2cn1 [Compound 28]   > 10 µM
 4  O=C(Nc1cc(-c2ccccc2)cc2cccnc12)c1ccccn1 [Compound 10]   > 10 µM
 5  COc1ccnc(C(=O)Nc2cccc3cccnc23)c1 [Compound 29]   > 10 µM
 6  O=C(Nc1cccc2cccnc12)c1cc(N2CCN(CCO)CC2)ccn1 [Compound 39]   > 10 µM
 7  O=C(Nc1cccc2cccnc12)c1cc(N2CCOCC2)ccn1 [Compound 30]      8 µM
 8  Cc1ccc2cccc(NC(=O)c3ccccn3)c2n1 [Compound 6]   > 10 µM
 9  O=C(Nc1cc(N2CCOCC2)cc2cccnc12)c1ccccn1 [Compound 13]   > 10 µM
10  O=C(Nc1cccc2cccnc12)c1cc(N2CCC(N3CCCC3)CC2)ccn1 [Compound 42]    3.6 µM
